Molecular target: gastrin (CCK2) receptors (Rattus norvegicus, UniProt P30553)
Construct: The stomach was excised and flushed with ca. 1 ml of unbuffered physiological saline solution; from tissue; host or cells: isolated whole stomach of immature rats (ca. 21 days old)
Sequence (P30553 whole entry): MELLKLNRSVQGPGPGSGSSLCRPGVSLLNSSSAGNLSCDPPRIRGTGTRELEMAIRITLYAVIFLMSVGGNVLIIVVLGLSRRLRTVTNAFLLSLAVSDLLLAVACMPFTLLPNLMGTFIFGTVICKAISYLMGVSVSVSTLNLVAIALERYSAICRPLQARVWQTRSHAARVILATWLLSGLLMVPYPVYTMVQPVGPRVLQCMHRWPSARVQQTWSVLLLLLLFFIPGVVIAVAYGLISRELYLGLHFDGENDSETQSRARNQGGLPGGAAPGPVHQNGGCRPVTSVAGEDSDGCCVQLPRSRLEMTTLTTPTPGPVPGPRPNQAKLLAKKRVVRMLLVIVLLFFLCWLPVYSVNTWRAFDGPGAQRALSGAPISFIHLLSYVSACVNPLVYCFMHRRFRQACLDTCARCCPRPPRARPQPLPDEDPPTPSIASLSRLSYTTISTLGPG
Assay: gastrin (CCK2) antagonist activity in an immature rat stomach assay
Settings: pentagastrin dose-response curves, acid secretion, read-out: pKB rat stomach (converted)
Kb values by entry
Reply with the number, then its unit.

Worked examples, 3 compounds total:
{"columns": ["structure-notation", "target-of-assay", "readout-value"],
 "data": [
  ["CC(C)(C)C(=O)CN1C(=O)N(CC(=O)Nc2cccc3c2cnn3CC(=O)O)N=C(C2CCCCC2)c2ccccc21", "gastrin (CCK2) receptors (Rattus norvegicus, UniProt P30553)", "44.7 nM"],
  ["CC(C)(C)C(=O)CN1C(=O)N(CC(=O)Nc2cccc(NC(=O)CCC(=O)O)c2)N=C(C2CCCCC2)c2ccccc21", "gastrin (CCK2) receptors (Rattus norvegicus, UniProt P30553)", "74.1 nM"],
  ["CC(=O)N/C(=C\\c1cccc(NC(=O)CN2N=C(C3CCCCC3)c3ccccc3N(CC(=O)C(C)(C)C)C2=O)c1)C(=O)O", "gastrin (CCK2) receptors (Rattus norvegicus, UniProt P30553)", "70.8 nM"]
]}

Next:
response.value for CC(C)(C)C(=O)CN1C(=O)N(CC(=O)Nc2cccc(/C=C3\SC(=O)NC3=O)c2)N=C(C2CCCCC2)c2ccccc21 (field: Kb) = 8.32 nM

# credit: patent US20050026911A1
